assay.protocol: yeast display, Sf9 membrane polyspecificity reagent, FACS + sequencing; frameworks hold sequencing errors
test.readout: polyreactivity (PSR sort gate)

1. QVQLVESGGGLVQAGGSLRLSCAASGFTFAWNAKGWYRQAPGKERELVAAINRSGGSTKYADSVKGRFTISRDNAKNTVYLQMNSLKPEDTAVYFCNKYQLVRTYGSYSYYYWVQGTQVTVSS: high polyreactivity
2. QVQLVESGGGLVQAGGSLRLSCAASGITFRANAMGWYRQAPGKERELVAAISARGGSTYYADSVKGRFTISRDNAKNTVYLQMNSLKPEDTAVYYCNAVAYRSRSEYDYWGQGTQVTVSS: high polyreactivity
3. QVQLVESGGGLVQAGGSLRLSCAASGSTFRYYTMGWYRQAPGKERELVAAITWSGGSTYYADSVKGRFTISRDNAKNTVYLQMNSLKPEDTAVYYCNARSLQWTPRAYYYWGQGTQVTVSS: high polyreactivity
4. QVQLVESGGGLVQAGGSLRLSCAASGGTLKYYAMGLYRQAPGKERELVATISSRGGSTYYADSVKGRFTISRDNAKNTVYLQMNSLKPEDTAVYYCARRYWVQSRYPELDYWGQGTQVTVSS: high polyreactivity
5. QVQLVESGGGLVQAGGSLRLSCAASGSIFTFYTMGWYRQAPGKERELVATIRWSVGSTYYADSVKGRFTISRDNAKNTVYLQMNSLKPEDTAVYYCAADSQWSYPDYPGEYAYDYWGQGTQVSVSS: low polyreactivity
6. QVQLVESGGGLVQAGGSLRLSCAASGRIFRYYAMGWYRQAPGKERELVATITSSGGSTFYADSVKGRFTISRDNAKNTVYLQMNSLKPEDTAVYYCAASRASRYFPYDYWGQGTQVTVSS: high polyreactivity
7. QVQLVESGGGLVQAGGSLRLSCAASGSIFLHYAMGWYRQAPGKERELVAAISRSGGRTYYADSVKGRFTISRDNAKNTVYLQMNSLKPEDTAVYYCAARVPRYRKDSVWAYYYWGQGPQVTVSS: high polyreactivity
8. QVQLVESGGGLVQAGGSLRLSCAASGFTFGTYNMGWSRQAPGKERELVASISRRGGRTDYADSVKGRFTISRHNAKNTVYLQMNSLKPEDTAVYYCNAAYPYGGFPYDYWGQGTQVTVSS: high polyreactivity
9. QVQLVETGGGLVQAGASLRLSCAASGRTFVYNAMGWYRQAPGKEREFVAAIDGGGDRTFYADSVKGRFTISRDYAKNTVYLQMNSLKPEDTAVYYCARDPGDTYYYSYPEGDYWGQGTQVTVSS: low polyreactivity
10. QVQLVESGGGLVQAGGSLRLSCAASGRTFSYNAMGWYRQAPGKERELVATISWGGGSTYYADSVKGRFTISRDNAKNTVYLQMNSQKPEDTAVFYCARVGWYAYLIDRDYWGQGSQVTVSS: high polyreactivity
11. QVELVESGGGLVQAGGSLRLSCDASGITFRSYAMGWYRQAPGKERELVAAIRSGGSTSYADSVKGRFTISRDNAKNTVYLQMNSLKPEDTAVYFCAAGGYVPLTDITFWKFGYWGQGSQVTVSS: low polyreactivity
12. QVQLVESGGGLVQAGGSLRLSCAASGRTFSYYAMGWYRQAPGKERELVAAITDSGDSTYYADSVKGRFTISRDNAKNTVYLQMNSLKPEDTAVYYCAAEIYSYYRFYWYDYWGQGTQVTVSS: high polyreactivity
13. QVQLVESGGGLVQAGGSLRLSCAASGRIFYRYAMGWYRQAPGKERELVATITNGGSTNYADSVKGRFTISRDNAKNTVYLQMNSLKPEDTAVYYCAARLPGYYGIGDYWGQGTQVTVSS: high polyreactivity
14. QVQLVESGGGLVQAGGSLRLSCAASGFTFRRYTMGWYRQARGKERELVAGITTSGGTYYADSVKGRFTISRDNAKNTVYLQMNSLKPEDTAVYYCAARIYYLYGMDYWGQGTQVTVSS: low polyreactivity
15. QVQLVESGGGLVQAGGSLSLSCADSGSTFPKYAMGWYRQAPGKERELVASISVTTGSTYYADTVKGRFTISRDNAKNTVYLHMNSLKPVDTAVYYCAKRTYSRKLRGAYNYWGQGTQVTVSS: high polyreactivity
16. QVQLVESGGALVQAGGSLRLSCAASGRTFYSYAMGWYRQAPGKERELVAAINRGASTYYADSVKGRFTISRDNAKNTDYFQMKSLKPEDTAFYYCGARLYGRHYGYWGQGTQVTVSS: high polyreactivity
17. QVQLVESGGGLVQAGGSLRLSCAASGFTFADYAMGWYRQAPGKERELVAAINRSGGRTYYADSVKGRFTISRDNAKNTVYLQMNSLKPEDTAVYYCAAYGITYHNYDYWGQGTQVTVSS: high polyreactivity
18. QVQLVESGGGLVQAGGSLRLSCAASGYTFNGYAMGWYRQAPGKERELVAAISWSGGSTYYADSVKGRFTISRDNAKNTFYLQMNSLKPEDTAVYYCARRGPSGVYNDGGYGLDDDYWGQGTQVTVSS: low polyreactivity
19. QVQLVESGGGLVQAGGSLRLSCAASGSIFTYKAKVRYRQAPGKERELVAAISASGGSTYYADSVKGRFTISRDNAKHTVYVQMNSLKPEDTALYYCNAYQTSTPLFPGYGYWGQGTQVTVSS: low polyreactivity
20. QVQLVESGGGLVQAGGSLRLSCAASGSTFGNYAMGWYRQAPGKERELVATISRSGGSTYYADSVQGRFTISRDIAKNTVNLQMNSLKPEDTAVYYCNRRYYTRKPDYNSWGQGTQVTVSS: high polyreactivity
21. QVHLVDSGGGLVQAGGSLRLSCAASGRIIYGNAMGWYRQSPGKERELVAAISSGTSTNYADSVKGRFTISRDNAKNTVYLQMNSLKPEDTAVYYCAAGSYSRYIYSLYFDFDYWGQGTQVTVSS: low polyreactivity

====

assay.protocol: yeast display, Sf9 membrane polyspecificity reagent, FACS + sequencing; frameworks hold sequencing errors
test.readout: polyreactivity (PSR sort gate)

1. QVQLVESGGGLVQAGGSLRLSCAASGSTFNWYAMGWYRQAPGKERELVASIRISGGSTYYADSVKGRFTISRDNAKNTVYLQMNSLKPEDTAVYYCNAKLFIRWFTYDYWGQGTQVTVSS: low polyreactivity
2. QVQLEESGGGLVQAGGSLRLSCAASGFTFWLYAMGWYRQAPGKEREFVAAISTSGGSTYADSVKGRFTISRDNAKNTVYLQMNSLKPEDTAVYYCNAGYLLYYDYHLFYWGQGTQVTVSS: low polyreactivity
3. QVQLVESGGGLVQAGGSLRLSCAASGYTFRSYLGWYRQAPGKEREFVADISTSVTNTYYADSVKGRFTISRDNAKNTVYLQMISLKPEDTAVYYCAAGVQSVYNGEPGIILDFDYWGQGTQVTVSS: low polyreactivity

====

assay.protocol: yeast display, Sf9 membrane polyspecificity reagent, FACS + sequencing; frameworks hold sequencing errors
test.readout: polyreactivity (PSR sort gate)

1. QVQLVESGGGLVQAGGSLRLSCAASGFIFAWYAMGWYRQAPGKEREMVAAITSGGRTYYADSVKGRFTISRDNAKNTVYLQMNSLKPEDTAVYYCATDAVASHRPYKYGPQSGSWGQGTQVTVSS: high polyreactivity
2. QDQLVESRGGLVQAGGSLRLSCAASGLIFWRYTMGWYSQAPGKERELVAAINRSGGSTYYADSVKGRFTISRDNAKNTVYFQMNSLKPDDPAVYYCAASGYRYPIDGDYWGLGTQVTVSS: high polyreactivity
3. QVQLVESGGGLVQAGGSLRLSCAASGRIFRRYAMGWYRQAPGTETELVAAISSGASTYYADSVKGRFTISRDNAKNTVYLQMNSLKPEDTAVYYCAVDRPYYYGYRMDYWGQGTQVTVSS: low polyreactivity
4. QVQLVESGGGLVHAGGSLRLSCAASGRTFWYYAMGWYRQAPGKERELVAAITRGGRTNYADSVKGRFTISRDNAKNTVYLQMNSLKPEDTAVYYCAADYRYPAHSYGYWGQGTQVTVSS: high polyreactivity
5. QVQPQESGGGPVQACGSLRLSCAASGNILDADILGWYRLVPAKERELVASITDGGSTNYAESVKGRFTISRDNAKNTVYLQMNSLKPEDTAVYYCARRHRVFPSRIGHDYWGQGSQVTVSS: low polyreactivity
6. QVQLVESGGGLVQAGGSLRLSCAASGSTFDYYAMGWYRQAPGKERELVAAISGSGGSTYYADSVKGRITISRDNAKNTVYLQMNSLKPEDTAVYYCATVRSRLFGQYYYWGQGTQVTVSS: high polyreactivity
7. QVQLKESGVGLVQAGGSLRLSCAASGTIYWLWSMGWYCQAPGKERELVASISSGGTTYHADSVKGRFTISRDNAKNTVYLQMNSLNPEDTAVYYSAAFYVATAKLGYWGQGSQVTVSS: low polyreactivity
8. QVQLVESGGGLVQAGGSLRLSCAASGGTSIYNDMGWYRQAPGKERELVAAISWSGGSTYYADSVKGRFTISRDNAKNTVYLQMNSLKPEDTAVYYCATQGFYKDYSRYDYWGQVTQVTVSS: low polyreactivity
9. QVQLVESGGGLVQAGGSLRLSCAASGYIFNKYVMGWYRQAPGKERELVAAISASGGSTYYADSVKGRFTISRDNAKNTVYLQMNSLKPEDTAVYYCAATLYRRMDYWGQGTEVTVSS: high polyreactivity
10. QVQLVESGGGLVQAGGSLRLICAASGSTFARYAMGWYRQAPGKERELVAVIRSGGSTNYADSVKGRFTISRDNAKNTVYLQMNSMKTEDTAGAADQWTIHRWATYGYWGQGTQVTVSS: low polyreactivity
11. QVHLVESGGGLVQAGGSLRLSCAASGSTFGTNAMGWYRQAPGKERELVARINSSASTTYADSVKGRFTISRDNAKNTVYLQMNSLKPEDTAVYYCAKSSLNIYDYWGQGTQVTVSS: high polyreactivity
12. QVQLVESGGGLVQAGGSLRLSCAASGRIIGYYAMGWYRQAPGKERELVAGIDWSGGNTYYADSVKGRFTISRDNAKNTVYLQMNSLKPEDTAVYYCNTEGGRDTAWYDYWGQGTQVTVSS: low polyreactivity
13. QVQLVESGGGLVQAGGSLRLSCAASGRIFIYNAMGWYRQAPGKERELVAAINRSGVSTHYADSVKGRFTISRDHAKNTVYLQMNSLKPEDTAVYYCARTVYGARSYDYWGQGTQVTVSS: low polyreactivity
14. QVQLVESGGRLVQAGGSLRLSCAASGSIIVYNTMGWYRQAPGKERELVAAITVRDDSTYYADSVKGRFTISRDNAKNTVYLQMNSLKPEDTAVYYCNARGNFLIGRDYWGQGTQVTVSS: low polyreactivity
15. QVQLVESGGGLVQAGGSLRLSCAASGRTLPFYAMGWYRQAPGKERELLAAINRSGGSTYYADSVKGRFTISRDNAKNTVSLQMNILKPEDTAVYYGNNVTVPGLGYYPPSYSNGHWGQGTQVSVSS: high polyreactivity
16. QVQLVESGGGLVHAGGSLRLSCAASGSIFYHNPMGWYRQAPGKERELVAAISGRGGSTYYADSVKGRFTISRDNAKHTVYLQMNSLKPEDSAVYYCAADARYQNGGLYYWGQGTHVTVSS: high polyreactivity
17. QVQLVESGGGLVHAGGSLRLSCAASGRITTYYTMGRYRHAPGKERELVAAISWSGTSTYYADSVKGRFTISRDNAKNTVYLQMNSLKPEATAVYYCNAGWRYPLDSVTDDYWGQGTQVTVSS: high polyreactivity
18. QVHLVESGGGLVQAGGSLRLSCAASGSIFHKNAMGWYRQAPGKERELVAAITSGGTTYYADSVKGRFTISRDNAKNTVYLLMNSLKPEDTAVYYCNAAKFLYRHGFLSAGDMYYWGQGTQVTVSS: high polyreactivity
19. QVQLVESGGGLVQAGGSLRLSCAASGLIFYDNLGWYRQAPGKERELVAAISSSGGSTSYADSVKGRFTISRDNAKNTVYLQMNSLKPEDTAVYYCAADSYPAYLGFVGFDYWGQGTQVTVSS: low polyreactivity
20. QVQLVESGGGLVQAGGSLRLSCAASGLTFRDNAMGWYRQAPGKERELVATINSGGSTDYADSVKGRFTISRDNAKNTVYLQMNILKPEDTAVYYCAVYREYYDRGWYSIFYWYDYWGQGTQVTVSS: low polyreactivity
21. QVQLQESGGGLVQAGGTLRLSCAASGSFSADEDMGWYRQEQGKEREFVAGISVGGNTNYADSVKGRFTISRENAKNTVYLQINSLKPEDTAVYYCAVLQDVYDALDYWAQGTQVTVSS: high polyreactivity

All values here come from the nanobody polyreactivity screen of Harvey et al. (2022).
